variants and their reported self-cleavage kobs at 160 uM GlcN6P
B1: glmS ribozyme (parent)
chain: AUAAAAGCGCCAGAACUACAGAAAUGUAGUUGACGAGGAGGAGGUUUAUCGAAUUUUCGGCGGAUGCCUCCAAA

variants of: B1; experiment: self-cleavage kobs at 160 uM GlcN6P; higher = faster cleavage; RNA array; conditions: with glucosamine-6-phosphate
Fewer inactive variants are shown than the library holds.

// solved cases for self-cleavage kobs at 160 uM GlcN6P follow
AUAAAAGCGCCAGAACUACAGAAAUGUAGUUGACGAGGAGGAGGUUUAUCGAAUAGUCGGCGGAUGCCUCCAAA [U55A U56G] : 0.000454 s⁻¹
AUAAAAGCGCCAGAACUACAGAAAUGUAGUUGACGAGGAGUAGCUUUAUCGAAUUUUCGGCGGAUGCCUCCAAA [G41U G44C] : < 1e-05 s⁻¹
AUAAAAGCGCCAGAAGUACAGAAAUGUAGUUGACGAGGAGGAGGUUUAUCGGAUUUUCGGCGGAUGCCGCCAAA [C16G A52G U69G] : 9.5e-05 s⁻¹
AUAAAAGCGCCAGGACUACAGAAAUGUAGUUGACGAGGACGAGGUUUAUCGAAUUUUCGGCGGAUGCCUCCAAA [A14G G40C] : 0.000739 s⁻¹
AUAAAAGCGCUAGAACUACAGAAAUGUAGUUAACGAGGAGGAGGUUUAUCGAAUUUUCGGCGGAUGCCUCCAAA [C11U G32A] : 5.04e-05 s⁻¹

// AUAAAAGCGCGAGCACUACAGAAAUGUAGUUGACGAGGAGGAGGUUUAUCGAAUUUUCGGCGGAUGCCACCAAA [C11G A14C U69A] : self-cleavage kobs at 160 uM GlcN6P value = 0.000527 s⁻¹

// AUAAAAGCGCCAGACCUACAGAAAUGUAGUUGACGUGGGGGAGGUUUAUCGAAUUUUCGGCGGAUGCCUCCAAA [A15C A36U A39G] : self-cleavage kobs at 160 uM GlcN6P value = < 1e-05 s⁻¹

// AUAAAAGCGCCAGAACUACAGAAAUGUAGUUGACGAGGAGGAGGUUUAUCGAAUUUUCGGCGCAUGCCUCCAAA [G63C] : self-cleavage kobs at 160 uM GlcN6P value = < 1e-05 s⁻¹
